Ref: patent US10703764B2

The following compounds are shown together with reported IC50 values.
molecular target: BRD4 BD2 (Homo sapiens, UniProt O60885); assay: AlphaScreen binding assay, BRD4 Bromodomain 2

Illustrative cases are given below, each with its answer.
- CC(=O)N1c2ccccc2N(S(=O)(=O)c2cccc(C(F)(F)F)c2)C[C@@H]1C [Example I-947]: > 0.5 µM
- COc1cncc(-c2ccc3c(c2)N(C(=O)c2ccco2)C[C@H](C)N3C(C)=O)c1 [Example I-835]: 0.05 to 0.5 µM
- CC(=O)N1c2cc(C#N)c(-c3cnn(C4CC4)c3)cc2N(C(=O)OC(C)C)C[C@@H]1C [Example I-211]: > 0.5 µM

Given the compound COC(=O)N1c2ccc(-c3cnn(CC(=O)O)c3)cc2N(C(=O)OC(C)C)C[C@@H]1C [Example I-341] and test system BRD4 BD2 (Homo sapiens, UniProt O60885), the measured IC50 is 0.05 to 0.5 µM

Given the compound CC(=O)N1c2ccc(-c3ccc(N4CCCS4(=O)=O)cc3)cc2N(C(=O)c2ccco2)C[C@@H]1C [Example I-424] and test system BRD4 BD2 (Homo sapiens, UniProt O60885), the measured IC50 is < 0.05 µM

Given the compound CC(=O)N1c2ccc(-c3cnn(CCC(F)(F)F)c3)cc2N(C(=O)OC(C)C)C[C@@H]1C [Example I-142] and test system BRD4 BD2 (Homo sapiens, UniProt O60885), the measured IC50 is 0.05 to 0.5 µM

Given the compound CC(C)OC(=O)N1C[C@H](C)N(C(=O)C2CC2)c2ccc(-c3cnn(CCN(C)C)c3)cc21 [Example I-646] and test system BRD4 BD2 (Homo sapiens, UniProt O60885), the measured IC50 is > 0.5 µM

Given the compound COC(=O)N1c2ccc(-c3ccc(C(=O)N4CC(O)C4)cc3)cc2N(C(=O)OC(C)C)C[C@@H]1C [Example I-579] and test system BRD4 BD2 (Homo sapiens, UniProt O60885), the measured IC50 is 0.05 to 0.5 µM

Given the compound CC(=O)N1c2ccc(-c3cnn(Cc4ccccc4)c3)cc2N(C(=O)c2ccco2)C[C@@H]1C [Example I-409] and test system BRD4 BD2 (Homo sapiens, UniProt O60885), the measured IC50 is < 0.05 µM

Given the compound CC(=O)N1c2ccc(-c3cnn(C4CNC4)c3)cc2N(C(=O)OC2CCCCC2)C[C@@H]1C [Example I-1304] and test system BRD4 BD2 (Homo sapiens, UniProt O60885), the measured IC50 is < 0.05 µM

Given the compound CC(=O)N1c2ccc(-c3ccc(C4(O)COC4)cc3)cc2N(C(=O)C2CC2)C[C@@H]1C [Example I-443] and test system BRD4 BD2 (Homo sapiens, UniProt O60885), the measured IC50 is < 0.05 µM

Given the compound COc1ccc(OC(=O)N2C[C@H](C)N(C(C)=O)c3ccc(-c4ccc(S(C)(=O)=O)cc4)cc32)cc1 [Example I-233] and test system BRD4 BD2 (Homo sapiens, UniProt O60885), the measured IC50 is < 0.05 µM

Given the compound COC(=O)N1c2ccc(-c3ccc(C(=O)N4CC[C@H](NC(C)=O)C4)cc3)cc2N(C(=O)OC(C)C)C[C@@H]1C [Example I-571] and test system BRD4 BD2 (Homo sapiens, UniProt O60885), the measured IC50 is 0.05 to 0.5 µM

Given the compound COC(=O)N1c2ccc(-c3cnn(C4CCNCC4)c3)cc2N(C(=O)OC(C)C)C[C@@H]1C [Example I-355] and test system BRD4 BD2 (Homo sapiens, UniProt O60885), the measured IC50 is 0.05 to 0.5 µM

Given the compound CC(=O)N1c2ccc(-c3cnn(C4CC4)c3)cc2N(C(=O)Oc2ccc(Cl)cc2Cl)C[C@@H]1C [Example I-1193] and test system BRD4 BD2 (Homo sapiens, UniProt O60885), the measured IC50 is 0.05 to 0.5 µM
